Protein target, amino acids: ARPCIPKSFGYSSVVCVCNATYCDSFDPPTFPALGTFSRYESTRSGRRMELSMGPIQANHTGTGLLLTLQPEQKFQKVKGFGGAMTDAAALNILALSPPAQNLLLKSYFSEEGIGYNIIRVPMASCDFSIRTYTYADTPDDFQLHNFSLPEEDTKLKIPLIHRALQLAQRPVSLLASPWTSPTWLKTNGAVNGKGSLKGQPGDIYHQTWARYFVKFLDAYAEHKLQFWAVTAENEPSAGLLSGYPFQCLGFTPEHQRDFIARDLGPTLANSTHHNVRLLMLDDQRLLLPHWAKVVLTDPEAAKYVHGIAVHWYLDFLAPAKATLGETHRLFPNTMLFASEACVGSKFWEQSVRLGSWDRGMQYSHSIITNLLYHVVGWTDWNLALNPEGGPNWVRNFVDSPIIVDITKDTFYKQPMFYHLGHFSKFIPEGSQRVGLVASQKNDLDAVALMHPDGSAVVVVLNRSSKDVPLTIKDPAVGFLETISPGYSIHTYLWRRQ
MEASUREMENT NAME: pIC50
Expect pIC50 as a plain number equal to -log10 of the molar concentration.

Example entries and their recorded answers appear below.
compound=Cc1ccc(C(=O)NC[C@H]2NC[C@@H](O)[C@H](O)[C@H]2CO)c([N+](=O)[O-])c1 measurement_name=pIC50 observed=6.72
compound=COc1ccc(C(=O)NC[C@H]2NC[C@@H](O)[C@H](O)[C@H]2CO)c(OC)c1 measurement_name=pIC50 observed=7.34
compound="O=C(NCC1NCC(O)C(O)C1CO)c1ccc2ccccc2c1 (centres unmarked)" measurement_name=pIC50 observed=8.43
compound=Cc1ccc(C(=O)NC[C@@H]2NC[C@@H](O)[C@H](O)[C@H]2CO)c([N+](=O)[O-])c1 measurement_name=pIC50 observed=7.96
compound=O=C(/C=C/c1cccc(Br)c1)NC[C@@H]1NC[C@@H](O)[C@H](O)[C@H]1CO measurement_name=pIC50 observed=8.40

### Prompt Quick one: pIC50 for `C/C(=C\c1ccccc1)C(=O)NC[C@@H]1NC[C@@H](O)[C@H](O)[C@H]1CO` ?
### Response 7.52

### Prompt So what's the measured pIC50 for this one? `O=C(NC[C@@H]1NC[C@@H](O)[C@H](O)[C@H]1CO)c1cccc2c1C(=O)c1ccccc1-2`
### Response 7.17

### Prompt Which pIC50 is reported for this compound? `O=C(Cc1ccc(Br)cc1)NC[C@H]1NC[C@@H](O)[C@H](O)[C@H]1CO`
### Response 6.60

* * *

TARGET UNDER TEST: rh-GCase (Homo sapiens, UniProt P04062)
MEASUREMENT NOTES: Thermal stability shift assay (fluorescence-based thermal denaturation)
Type: binding
SETTINGS: pH 7, 100 µM, compared to Tm of rh-GCase without small molecule, read-out: In-vitro rh-GCase stabilization ΔTm
MEASUREMENT NAME: ΔTm at 100 µM (°C)
Lab book: enter the figure in °C, no units written.

As a guide, the following entries are already answered.
smiles_representation=C/C(=C\c1ccccc1)C(=O)NC[C@@H]1NC[C@@H](O)[C@H](O)[C@H]1CO observed=11.3
smiles_representation=O=C(Cc1ccc(Br)cc1)NC[C@@H]1NC[C@@H](O)[C@H](O)[C@H]1CO observed=14.2

### Prompt For the molecule shown here, `O=C(/C=C/c1cccc(Br)c1)NC[C@@H]1NC[C@@H](O)[C@H](O)[C@H]1CO` , give the reported ΔTm at 100 µM.
### Response 13.2

### Prompt Field request: ΔTm at 100 µM | item: `OC[C@H]1CNC[C@@H](O)[C@@H]1O`
### Response 9.6
